Target: atypical chemokine receptor ACKR3 (formerly CXCR7) (human, UniProt P25106 1-362)
Sequence (P25106 whole entry): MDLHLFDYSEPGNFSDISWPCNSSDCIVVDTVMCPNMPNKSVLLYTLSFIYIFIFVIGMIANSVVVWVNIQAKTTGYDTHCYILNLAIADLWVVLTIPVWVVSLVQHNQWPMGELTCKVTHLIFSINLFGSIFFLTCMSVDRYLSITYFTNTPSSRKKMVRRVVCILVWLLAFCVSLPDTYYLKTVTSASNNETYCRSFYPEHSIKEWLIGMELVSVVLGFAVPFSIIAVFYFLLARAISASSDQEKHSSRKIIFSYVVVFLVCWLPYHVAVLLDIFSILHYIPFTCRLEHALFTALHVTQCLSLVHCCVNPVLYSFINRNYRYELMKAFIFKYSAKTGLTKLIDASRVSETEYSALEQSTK
Experiment: flow cytometry on cells
No end group written: not given here.
Provide the recorded IC50 for the entries that follow.
Answers are plain numbers, in nM.

Example entries begin here.
- binder: "YGGFMRRVGRPEWWMDYQKRYG [BAM22]"
  IC50, nM: 31.3
- binder: "YGGFMRRV-NH2 [Adrenorphin]"
  IC50, nM: 41.2
- binder: "FGGFMRRK-NH2 [LIH383]"
  IC50, nM: 4

# input for lookup
// lookup IC50 for YGGFLRRIRPKLKWDNQ [Dynorphin A]
85.3
